# EC50 values compiled below
Target: T1, gp70 C.1086 V1/V2 (HIV-1 V1V2 on murine leukemia virus gp70)
T1 construct: also called C.gp70 1086C V1V2; C.1086gp70V1V2
T1 chain: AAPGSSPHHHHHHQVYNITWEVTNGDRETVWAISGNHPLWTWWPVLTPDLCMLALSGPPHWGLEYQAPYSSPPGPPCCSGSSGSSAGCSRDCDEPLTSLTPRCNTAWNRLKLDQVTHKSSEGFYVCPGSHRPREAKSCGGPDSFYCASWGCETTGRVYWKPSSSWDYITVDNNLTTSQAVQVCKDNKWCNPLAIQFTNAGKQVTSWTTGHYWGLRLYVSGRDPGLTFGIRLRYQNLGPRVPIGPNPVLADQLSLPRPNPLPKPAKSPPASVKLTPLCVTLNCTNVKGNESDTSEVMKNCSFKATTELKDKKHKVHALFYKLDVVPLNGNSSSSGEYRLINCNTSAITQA
Test: ELISA
PROPERTY NAME: EC50

>>> result("CH59 (antibody, V domains shown, also called mAb CH59) VH: EVQLVESGGGLVQPGRSLRLSCAASGFTFDDGAMHWVRQAPGKGLEWVSGISWNSNIIAYADSVKGRFTISRDNAKNSLYLEMNSLRVEDTALYYCAKDSPRGELPLNYWGQGTLVTVSS VL: SYELTQPPSVSVSPGQTARITCSGDALPKNYAYWYQQKSGQAPVLVIYEDSKRPSGIPERFSGSSSGTMATLTISGAQVEDEADYYCYSTDSSGNHRVFGGGTKLTVL")
"0.067 nM"
>>> result("697D (antibody, V domains shown, also called mAb 697D; V2 conformational mAb 697D) VH: QVQLVQSGAEVKKPGSSVKVSCKASGGNFNTYTISWVRQAPGQGLEWMGRIIPIFGIVNPAQKFPGRVTINVDKSTNTAYMELSSLRSEDTAVYYCATSGVGLHFGYFDYWGQGTQVTVSS VL: QSVLTQPPSVSGAPGQRVTISCTGSSSNIGAHYDVHWYQQLPGTAPKLLIYGNSNRPSGVPDRFSGSKSGTSASLAITGLQAEDEADYYCQSYDSSLSGYVFGTGTKVTVL")
"0.067 nM"
>>> result("CH58 reverted unmutated ancestor antibody (antibody, V domains shown, also called CH58 RUA; CH58_RUA) VH: EVQLVQSGAEVKKPGESLKISCKGSGYSFTSYWIGWVRQMPGKGLEWMGIIYPGDSDTRYSPSFQGQVTISADKSISTAYLQWSSLKASDTAMYYCARLGGRYYYDSSGYYYFDYWGQGTLVTVSS VL: NFMLTQPHSVSESPGKTVTISCTRSSGSIASNYVQWYQQRPGSSPTTVIYEDNQRPSGVPDRFSGSIDSSSNSASLTISGLKTEDEADYYCQSYDSSSWVFGGGTKLTVL")
"> 66.7 nM"
>>> result("CH59 reverted unmutated ancestor antibody (antibody, V domains shown, also called CH59 RUA; CH59_RUA) VH: EVQLVESGGGLVQPGRSLRLSCAASGFTFDDYAMHWVRQAPGKGLEWVSGISWNSGSIGYADSVKGRFTISRDNAKNSLYLQMNSLRAEDTALYYCAKDSPRGELPFDYWGQGTLVTVSS VL: SYELTQPPSVSVSPGQTARITCSGDALPKKYAYWYQQKSGQAPVLVIYEDSKRPSGIPERFSGSSSGTMATLTISGAQVEDEADYYCYSTDSSGNHRVFGGGTKLTVL")
"11.3 nM"

FYI, the data here is from patent US9988424.
